Reference source for all entries: patent US20240139125A1

- experimental-protocol: Cell viability for BIA and analogues, HT1080 cell line
- Assay type: cell-based
- condition-set: human, HT1080 fibrosarcoma cells, HT1080, 10 uM
- Method: HT1080 MDA-MB-231, SKBR3 and MCF7 cell lines were cultured in a 37° C., 5% CO2 incubator in a medium with 10% Fetal Bovine Serum, 1% penicillin and streptomycin (100 U) added to DMEM. The compound prepared in Example 15 was treated with HT1080 fibrosarcoma cell line at 5 μM and 10 μM and cell viability was measured. In addition, the compound prepared in Example 15 on the DU145 prostate cancer cell line was treated with 10 μM, 20 μM, and 30 μM and cell viability was measured (see Table 2, Table 3).
reported-metric: viability at 10 µM (%)
Record the value in %, omitting the unit from your answer.

Form field: reported viability at 10 µM of Nc1ccccc1-c1cc(-c2cccc(C(F)(F)F)c2)ncn1 97.3

Which viability at 10 µM reading was recorded for the compound COc1cc(N)c(C(=O)/C=C/c2cccc(C#N)c2)cc1OC [GM-90319] ? 9.94

Please report the recorded viability at 10 µM for Nc1ccccc1C(=O)/C=C/c1cccc(C(=O)O)c1 [GM-90296] . 91.6

Item CCOc1cc(F)ccc1/C=C/C(=O)c1ccccc1N [GM-90224] has what recorded viability at 10 µM? 99.7

Returns the measured viability at 10 µM for the input compound. Input: COc1cc(N)c(C(=O)/C=C/c2cccc(C(F)(F)F)c2)cc1OC [GM-90320] 62.7

State the recorded viability at 10 µM for this entry: COc1cc(N)c(C(=O)/C=C/c2cccc(Br)c2)cc1OC [GM-90255] 33.4

For the compound Nc1ccccc1C(=O)/C=C/c1ccc(F)cc1F [GM-90223] , what viability at 10 µM is on record? 86

Requested field: viability at 10 µM. Item: CC(C)(C)c1ccc(/C=C/C(=O)c2ccccc2N)cc1 [GM-90243] 39.2

# get_value(readout='viability at 10 µM', item= Cc1ccc(/C=C/C(=O)c2ccccc2N)cc1 [GM-90227] ) 96.3

Name the reported viability at 10 µM value associated with the compound Nc1ccccc1C(=O)/C=C/c1ccccc1 [GM-90130] 31.7

---

- experimental-protocol: Cell viability for BIA and analogues, DU145 cell line
- Assay type: cell-based
- condition-set: human; DU145, 10 uM
- Description: The compound prepared in Example 15 was treated with HT1080 fibrosarcoma cell line at 5 μM and 10 μM and cell viability was measured. In addition, the compound prepared in Example 15 on the DU145 prostate cancer cell line was treated with 10 μM, 20 μM, and 30 μM and cell viability was measured (see Table 2, Table 3).
Kindly supply the reported viability at 10 µM values for the records listed here.
Only the number, expressed in %, is required.

Fill blank: measured viability at 10 µM of the compound CCOc1ccc([N+](=O)[O-])cc1C(O)CC(=O)c1ccccc1N (centres unmarked) [GM-90230] is ____. 66.3

# input compound: COc1cc(N)c(C(=O)/C=C/c2cccc(Br)c2)cc1OC [GM-90255] ; wanted: its viability at 10 µM 88.7

// lookup viability at 10 µM for CCOc1cccc(/C=C/C(=O)c2ccccc2N)c1 [GM-90295] 91.7

For the compound shown here, Nc1ccccc1C(=O)/C=C/c1ccc(C(F)(F)F)cc1 [GM-90226] , give the reported viability at 10 µM. 68.1

Reported viability at 10 µM, compound O=C(/C=C/c1cccc([N+](=O)[O-])c1)c1ccccc1O [GM-90135] : ____ 88.5
